- Test system: IGROV1 ovarian
- EXPERIMENT: NCI-60 one-dose screen, 48 h (100 = growth as untreated, 0 = no growth, -100 = all killed)
- EXPERIMENTAL_PARAMETERS: 10 µM unless noted
About 83,000 compounds went through this panel and 20% of them were active in at least one assay; those are over-represented in the sample as a whole.
Binning of growth into classes: low interval (below 30%), middle interval (30% to below 70%), high interval (70% or more)

Recorded results for 4 molecules are shown here.
{"MOLECULE": "c1ccc2c(N=NSc3ncnc4nc[nH]c34)c3ccccc3nc2c1", "CATEGORY_LABEL": "low interval"}
{"MOLECULE": "S=C(S)Oc1cccc2cccnc12", "CATEGORY_LABEL": "high interval"}
{"MOLECULE": "COc1cc(NCCC2CCCCN2)c2ncccc2c1OC (stereo unspecified)", "CATEGORY_LABEL": "low interval"}
{"MOLECULE": "Nc1nc(NC2CC2)cc(-c2cccc(Cl)c2Cl)n1", "CATEGORY_LABEL": "middle interval"}

Incoming: Given CC(CN1CCN(CC(C)Nc2ccnc3cc(Cl)ccc23)CC1)Nc1ccnc2cc(Cl)ccc12 (stereo unspecified) , name the class its growth places it in.
Outgoing: low interval

Incoming: Hi, small favor: classify CN(C)c1ccc(C2(Cl)c3ccccc3N(C)c3ccccc32)cc1 by its growth when you get a moment.
Outgoing: middle interval

Incoming: Record COc1ccc2[nH]cc(C3(c4c[nH]c5ccc(OC)cc45)C(=O)Nc4ccc(F)cc43)c2c1 — which class?
Outgoing: high interval

Incoming: Which class holds OC(CCCCCCCCC(O)CN1CCc2ccccc2C1)CN1CCc2ccccc2C1 (stereo unspecified) ?
Outgoing: high interval

Incoming: Category lookup for the molecule CCCCCCCC/C=C\CCCCCCCC(=O)OCCCCCC
Outgoing: high interval

Incoming: Input Nc1ncnc2c1N=C(c1ccc3c(c1)OCO3)CC(c1ccc(Cl)cc1)N2 (stereo unspecified) ; output its category
Outgoing: low interval

Each recorded value in this set is attributed to PubChem BioAssay (NCI).
